Experiment: Stability of liquid pharmaceutical forms (peptide 0.2 %, benzalkonium chloride 0.01 %, water) during storage; single and total impurities
Assay type: physicochemical
Details: stored for 12 months at +25° C.
Excerpt: Investigations of the Stability of Pharmaceutical Forms Containing Peptides Having the Property of Stimulating the Genital and Sexual Functions This experiment investigated the stability of compositions containing peptides according to the invention. […]
Non-standard residues stand in square brackets, D forms with d. No end group written: not given here. Hyp = O=C(O)[C@@H]1C[C@@H](O)CN1
Parameter Single impurities: see the listing below.

{"columns": ["SUBSTANCE", "UNITS", "Single impurities"],
 "data": [
  ["Thr-Lys-Hyp-Arg-Hyp (TK[Hyp]R[Hyp]) [pentapeptide of the invention containing hydroxyproline]", "%", 0.2],
  ["Thr-Lys-Pro-Arg-Pro (TKPRP; not fully specified; printed as Thr-Lys-Pro-Arg-Pro) [pentapeptide described in RU2507212, comparison peptide, reference compound]", "%", 4],
  ["Thr-Lys-Hyp-Arg-Hyp-Gly-Hyp (TK[Hyp]R[Hyp]G[Hyp]) [peptide according to the invention containing hydroxyproline]", "%", 0.3],
  ["Thr-Lys-Hyp-Arg-Hyp-Phe (TK[Hyp]R[Hyp]F) [hexapeptide of the invention containing hydroxyproline]", "%", 0.4]
]}
